Test system: ragweed (common ragweed, Ambrosia elatior)
Assay: Test C preemergence
Assay type: in vivo
Conditions: 125 g ai/ha, scale 0 to 100, 0 no effect, 100 complete control
assayMetric: Plant response rating, Ragweed

Known Plant response rating, Ragweed results, listed for orientation:
Qu. Report its Plant response rating, Ragweed with ragweed (common ragweed, Ambrosia elatior) as the test system: Cc1ccc(C2CN(C)C(=O)C2C(=O)Nc2ccccc2C(F)(F)F)cc1 (centres unmarked)
Ans. 70

Qu. Give reported Plant response rating, Ragweed for CC(C)Oc1cccc(C2CN(C)C(=O)C2C(=O)Nc2cccc(F)c2F)c1 (centres unmarked) (ragweed (common ragweed, Ambrosia elatior))
Ans. 60

Qu. Look up ragweed (common ragweed, Ambrosia elatior) data: Plant response rating, Ragweed of O=C1NCC(c2ccc(Br)cc2)C1C(=O)Nc1cccc(F)c1F (centres unmarked) , then report it.
Ans. 75

Qu. Using ragweed (common ragweed, Ambrosia elatior) as the test system, report measured Plant response rating, Ragweed of O=C1NCC(c2cccc(C(F)(F)F)c2F)C1C(=O)Nc1cccc(F)c1F (centres unmarked) .
Ans. 35

Below: the item to evaluate.
Qu. For ragweed (common ragweed, Ambrosia elatior), give Plant response rating, Ragweed of the listed compound: CN1CC(c2cccc(OC(F)(F)C(F)F)c2)C(C(=O)Nc2cccc(F)c2F)C1=O (centres unmarked)
Ans. 60
